Hello, the source for this data is patent US9643980B2, in case you need it.

Exercise: for every item that follows, state its recorded EC50.
system: HCC1954 cells (PI3Kα mutant H1047R); experiment: In vitro cell viability assay (Cell Titer-Glo), HCC1954; details: Homo sapiens, HCC1954, 96 h, read-out: HCC1954 antiproliferative EC50 (μM)
Give bare numbers, in µM.

Record excerpt, results attached:
C[C@@H]1COC(=O)N1c1cn2c(n1)-c1ccc(N3CCC[C@H]3C(N)=O)cc1OCC2 :: 0.48
NC(=O)[C@@H]1CCCN1c1ccc2c(c1)OCCn1cc(N3C(=O)OC[C@H]3C(F)(F)F)nc1-2 :: 0.15

Turning now to a further record.
-- ask Give recorded EC50 with HCC1954 cells (PI3Kα mutant H1047R) for the following molecule: C[C@H](Oc1ccc2c(c1)OCCn1cc(N3C(=O)OC[C@H]3C(F)(F)F)nc1-2)C(N)=O
-- reply 0.005

###

target: PI3Kδ (Homo sapiens, UniProt O00329); test: PI3K binding assay (lipid kinase reaction, ADP-Glo), PI3K delta; type: biochemical; details: Table 2B comparator compounds; first value of cell (ADP-Glo)
Sequence (O00329 whole entry, one chain of several): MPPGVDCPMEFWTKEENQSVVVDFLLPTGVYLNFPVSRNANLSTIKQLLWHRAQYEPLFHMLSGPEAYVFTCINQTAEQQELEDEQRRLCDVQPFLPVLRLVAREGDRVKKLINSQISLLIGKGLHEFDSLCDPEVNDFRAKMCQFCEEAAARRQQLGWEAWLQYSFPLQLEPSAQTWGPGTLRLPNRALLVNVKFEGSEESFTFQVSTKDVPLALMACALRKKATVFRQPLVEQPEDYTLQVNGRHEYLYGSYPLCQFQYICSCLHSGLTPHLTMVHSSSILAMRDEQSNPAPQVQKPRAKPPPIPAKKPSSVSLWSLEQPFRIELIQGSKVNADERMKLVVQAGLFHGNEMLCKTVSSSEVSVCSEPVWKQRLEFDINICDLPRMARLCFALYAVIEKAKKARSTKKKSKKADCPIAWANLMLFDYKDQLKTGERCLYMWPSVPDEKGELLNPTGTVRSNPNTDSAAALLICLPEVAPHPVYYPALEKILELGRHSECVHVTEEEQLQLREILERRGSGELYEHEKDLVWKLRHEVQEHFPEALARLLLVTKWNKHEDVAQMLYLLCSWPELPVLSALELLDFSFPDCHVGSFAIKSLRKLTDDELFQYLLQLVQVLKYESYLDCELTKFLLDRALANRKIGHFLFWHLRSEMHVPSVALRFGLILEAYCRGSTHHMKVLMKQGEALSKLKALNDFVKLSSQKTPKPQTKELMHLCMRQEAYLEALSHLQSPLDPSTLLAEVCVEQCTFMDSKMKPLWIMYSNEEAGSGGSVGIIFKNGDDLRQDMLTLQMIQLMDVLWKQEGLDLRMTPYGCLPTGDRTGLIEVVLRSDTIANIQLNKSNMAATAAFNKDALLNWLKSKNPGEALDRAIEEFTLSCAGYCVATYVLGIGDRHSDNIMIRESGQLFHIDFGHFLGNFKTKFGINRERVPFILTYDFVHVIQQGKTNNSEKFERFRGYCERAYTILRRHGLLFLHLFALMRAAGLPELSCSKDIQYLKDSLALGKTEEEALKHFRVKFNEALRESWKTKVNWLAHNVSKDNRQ
reportedProperty: pKi
Give bare numbers, as −log10 of the molar value.

Previously resolved entries follow.
NC(=O)[C@@H]1CCCN1c1ccc2c(c1)OCCn1cc(-c3ncnn3CC(F)(F)F)nc1-2 [Compound 469, reference compound] :: 9.37
CC(C)n1ncnc1-c1cn2c(n1)-c1ccc(O[C@@H](C)C(N)=O)cc1OCC2 [Compound 436, reference compound] :: 8.11

-- ask Query the reported pKi for PI3Kδ (Homo sapiens, UniProt O00329); item: CC(C)(O)Cn1cc(-c2ccc3c(c2)OCCc2sc(N4C(=O)OCC4(C)C)nc2-3)cn1 [356 (U.S. Pat. No. 8,263,633), reference compound]
-- reply 9.04

###

Please go through the items and note down their Ki.
molecular target: PI3Kα (Homo sapiens, UniProt P42336); assay: PI3K binding assay (lipid kinase reaction, ADP-Glo), PI3K alpha; type: biochemical; conditions: Table 2A; first value of cell (ADP-Glo, Example 901); read-out: PI3Kα Ki
Sequence (P42336 whole entry): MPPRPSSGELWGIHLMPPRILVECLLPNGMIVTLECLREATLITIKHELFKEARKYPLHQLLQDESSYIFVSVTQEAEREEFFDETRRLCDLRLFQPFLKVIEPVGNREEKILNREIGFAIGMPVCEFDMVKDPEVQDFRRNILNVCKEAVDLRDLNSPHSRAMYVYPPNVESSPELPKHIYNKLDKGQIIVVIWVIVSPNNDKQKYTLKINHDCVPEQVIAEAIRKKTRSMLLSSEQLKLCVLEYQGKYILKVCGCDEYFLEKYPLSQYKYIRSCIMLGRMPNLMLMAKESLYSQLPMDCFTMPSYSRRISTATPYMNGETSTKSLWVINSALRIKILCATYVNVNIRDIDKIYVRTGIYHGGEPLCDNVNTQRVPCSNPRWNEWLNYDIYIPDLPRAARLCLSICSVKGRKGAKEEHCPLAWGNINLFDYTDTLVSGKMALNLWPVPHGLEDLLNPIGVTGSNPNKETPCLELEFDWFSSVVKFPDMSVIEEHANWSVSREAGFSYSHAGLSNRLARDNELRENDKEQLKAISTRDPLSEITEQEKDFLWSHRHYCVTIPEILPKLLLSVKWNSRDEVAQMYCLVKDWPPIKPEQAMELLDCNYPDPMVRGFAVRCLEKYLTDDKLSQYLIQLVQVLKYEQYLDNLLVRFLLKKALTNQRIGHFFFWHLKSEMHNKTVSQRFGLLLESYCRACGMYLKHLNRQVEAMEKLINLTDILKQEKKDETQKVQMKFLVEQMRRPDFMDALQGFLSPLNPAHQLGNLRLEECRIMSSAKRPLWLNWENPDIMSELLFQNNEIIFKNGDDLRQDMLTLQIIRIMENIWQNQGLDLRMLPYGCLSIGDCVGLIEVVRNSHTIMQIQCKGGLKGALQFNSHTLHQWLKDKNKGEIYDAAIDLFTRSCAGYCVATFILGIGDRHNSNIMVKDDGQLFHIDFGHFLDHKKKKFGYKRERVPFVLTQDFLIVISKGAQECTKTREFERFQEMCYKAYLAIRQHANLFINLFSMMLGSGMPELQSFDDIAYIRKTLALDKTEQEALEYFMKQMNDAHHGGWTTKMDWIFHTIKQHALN
Sequence (P27986 whole entry partner): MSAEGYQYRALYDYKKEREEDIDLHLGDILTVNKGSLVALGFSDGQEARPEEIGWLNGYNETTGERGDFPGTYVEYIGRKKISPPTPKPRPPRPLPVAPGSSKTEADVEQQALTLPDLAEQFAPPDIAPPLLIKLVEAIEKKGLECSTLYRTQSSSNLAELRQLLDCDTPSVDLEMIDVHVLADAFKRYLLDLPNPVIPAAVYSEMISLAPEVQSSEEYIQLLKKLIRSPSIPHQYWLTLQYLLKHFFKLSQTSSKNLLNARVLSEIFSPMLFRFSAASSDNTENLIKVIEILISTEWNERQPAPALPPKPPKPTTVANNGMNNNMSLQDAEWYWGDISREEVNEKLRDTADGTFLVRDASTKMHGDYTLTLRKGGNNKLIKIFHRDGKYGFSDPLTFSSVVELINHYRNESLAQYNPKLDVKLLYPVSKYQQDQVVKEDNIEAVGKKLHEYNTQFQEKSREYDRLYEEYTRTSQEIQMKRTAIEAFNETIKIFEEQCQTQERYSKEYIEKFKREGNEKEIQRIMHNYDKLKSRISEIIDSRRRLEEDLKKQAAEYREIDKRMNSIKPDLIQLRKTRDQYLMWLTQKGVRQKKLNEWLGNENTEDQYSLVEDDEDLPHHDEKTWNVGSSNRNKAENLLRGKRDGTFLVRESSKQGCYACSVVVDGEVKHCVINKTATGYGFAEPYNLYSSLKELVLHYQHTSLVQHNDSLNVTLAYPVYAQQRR
Answers are plain numbers, in nM.

C[C@@H]1COC(=O)N1c1cn2c(n1)-c1ccc(N3CCC[C@H]3C(N)=O)cc1OCC2 :: 0.56
NC(=O)[C@@H]1CCCN1c1ccc2c(c1)OCCn1cc(N3C(=O)OC[C@H]3C(F)F)nc1-2 :: 0.053

-- ask Reported Ki, molecule NC(=O)[C@@H]1CCCN1c1ccc2c(c1)OCCn1cc(N3C(=O)OC[C@H]3C(F)(F)F)nc1-2 : ____
-- reply 0.155
